system: Influenza B virus; experiment: Antiviral activity against human influenza B virus B/TW/99/07 in MDCK cells assessed as reduction of virus-induced cytopathic; assay type: functional, organism-based; conditions: B/TW/99/07, MDCK

recordSmiles	IC50
Cc1cc(=O)oc2c1ccc1oc(C(=O)c3cccs3)c(-c3ccccc3)c12	0.04 µM
CC(=O)N[C@H]1[C@H]([C@H](O)[C@H](O)CO)OC(C(=O)O)=C[C@@H]1NC(=N)N	0.1 µM

Value source: ChEMBL document CHEMBL1156875
